Please respond with reported composite z-score for every item in the list.
testDescription: small molecules captured by biotinylated probe aFSTL3 – biochemical, small-molecule microarray, fluorescence 635/667, stem cell growth factor project, primary screen (AID 1064);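 also: measures binding of the biotinylated anti-FSTL3 antibody to printed compounds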
settings: higher = more signal

1) O=C1C2C=CC(C(O)C3CCCCC3)N(n3cnnc3)C2C(=O)N1Cc1ccccc1 (stereo not drawn)    -0.0187
2) C=CC[C@]1(C(=O)NCC(O)CO)COC(c2ccc(OCCCO)cc2)=N1 (stereo partly drawn)    1.3
3) CC(C)NC(=O)[C@@H]1c2ccccc2C(=O)N(Cc2ccccc2C(F)(F)F)[C@H]1c1ccc(CO)cc1    -0.804

Hi there! I need composite z-score for each item below, if you can.
1. CCCCC(O)C1C=CC2C(=O)N(c3ccccc3)C(=O)C2N1Nc1ccc(C#N)cc1 (stereo not drawn)
2. COCCOC(=O)N1C(=O)[C@@]2(c3cc(C#CCC(C(=O)OC)C(=O)OC)ccc31)[C@H](C(=O)Nc1nc3ccccc3s1)[C@H]1C(=O)O[C@H](c3ccccc3)[C@H](c3ccccc3)N1[C@@H]2c1ccc(OCCO)cc1
3. CC(=O)NCCCC[C@@H]1NC(=O)[C@H]2C[C@@H](C(=O)NCCCCCCNC(=O)CS)[C@@H](c3cccc(OCCO)c3)N2C1=O
4. COC(=O)[C@@]1(Cc2ccccc2)N=C(c2ccc(OCCCO)cc2)O[C@H]1c1ccccc1CN=[N+]=[N-]
5. O=C1C[C@@](C(=O)NCc2ccccc2)(c2ccc([N+](=O)[O-])cc2)[C@@H](c2ccc(CO)cc2)N1C1CCCCC1

A)
1. 0.805
2. 0.357
3. 0.419
4. 0.261
5. -0.709

---

testDescription: growth of efflux-deficient E. coli DRC39 – strain DRC39, OD650, 48 h, E. coli filamentation inducers, primary screen (AID 1179);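 also: screen aims at cell division blockers that make cells filament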
settings: E. coli DRC39 delta-acrAB growth, higher = more signal, called active from +8 up or from −8 down
Classification field: Satisfied = z-score at or over -0.4; Not satisfied = z-score under -0.4.

1) O=C(N1CCOCC1)[C@@]1(Cc2ccccc2)COC(c2ccc(OCCCO)cc2)=N1    Satisfied
2) Cc1ccc(C(C)CC(O)C2C=CC3C(=O)N(C)C(=O)C3N2Nc2ccccc2)o1 (stereo not given)    Not satisfied

Q) Could you tell me if the measured z-score of COc1cc(C(O)C2C=CC3C(=O)N(c4ccccc4)C(=O)C3N2Nc2ccccc2)cc(OC)c1OC (stereo not given) reaches -0.4 or more?
A) Not satisfied

---

studySystem: Follistatin (Homo sapiens) (UniProt P19883)
Sequence (P19883 whole entry, looked up): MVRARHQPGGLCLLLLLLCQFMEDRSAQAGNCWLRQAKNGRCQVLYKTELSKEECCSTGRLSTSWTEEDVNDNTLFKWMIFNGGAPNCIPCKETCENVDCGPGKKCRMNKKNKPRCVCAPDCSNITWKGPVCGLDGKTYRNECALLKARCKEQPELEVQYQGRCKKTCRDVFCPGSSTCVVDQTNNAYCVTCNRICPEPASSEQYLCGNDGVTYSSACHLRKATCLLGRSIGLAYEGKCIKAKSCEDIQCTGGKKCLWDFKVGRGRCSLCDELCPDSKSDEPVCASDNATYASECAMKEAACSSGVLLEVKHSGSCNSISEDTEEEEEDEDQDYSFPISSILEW
testDescription: FST protein binding to printed compounds – biochemical, small-molecule microarray, 635/667 nm fluorescence, primary screen (AID 1132)
settings: 635 nm fluorescence, higher = more signal
Classification field: True = composite z-score at or over 1; False = composite z-score under 1.

Please review the following examples before continuing.
1. CCCCC(O)C1C=CC2C(=O)N(c3ccccc3)C(=O)C2N1Nc1ccccc1 (stereo not drawn)    False
2. CN(C)CCCC[C@@H]1NC(=O)[C@@H]2C[C@H](C(=O)NCCCCCN)[C@H](c3cccc(OCCO)c3)N2C1=O    True
3. COc1ccc([Si](C)(C)[C@@H]2[C@@H](CC(=O)N3CCC[C@H]3CO)O[C@]3(C(=O)N(Cc4cccc(N5CCCCC5=O)c4)c4ccccc43)[C@H]2C)cc1    False
4. CC(C)(C)N1CC=CC23O[C@@H]4C=CCCOC(=O)C4[C@H]2C(=O)N(CCCCCCO)[C@@H]3C1=O (stereo partly drawn)    False
5. CCCC[C@H]1OB(O)C[C@H]2C1=C(COc1ccccc1)C[C@H]1C(=O)C=CC(=O)[C@H]12    True

Q) Could you tell me if the measured composite z-score of `C[N+](C)(C)CCCC[C@@H]1NC(=O)[C@@H]2C[C@H](C(=O)NCc3ccc(F)cc3)[C@H](c3ccc(O)cc3)N2C1=O` reaches 1 or more?
A) True

Q) Input `C=CCOC(=O)[C@@H]1[C@H]2C(=O)O[C@H](c3ccccc3)[C@H](c3ccccc3)N2[C@H](c2ccc(OCCOC(=O)[C@H]3C[C@H]4C(=O)NCC(=O)N4[C@H]3c3cccc(OCCO)c3)cc2)[C@@]12C(=O)Nc1ccc(I)cc12`
A) True

Q) Input `CCOC(=O)C1=CC[C@@H](c2ccc(OC)cc2)N(S(=O)(=O)c2ccc(C)cc2)[C@H]1c1ccc(C)cc1`
A) False

Q) Input [N-]=[N+]=Nc1ccccc1C[C@@]1(C(=O)NCC(O)CO)N=C(c2ccc(OCCCO)cc2)O[C@@H]1c1ccccc1 (stereo partly drawn)
A) False

Q) Input `O=C(NC1CC1)[C@@H]1c2ccccc2C(=O)N(Cc2cc(C(F)(F)F)cc(C(F)(F)F)c2)[C@H]1c1ccc(CO)cc1`
A) False

Q) Input CC(C)C[C@@H]1NC(=O)[C@@]23C(=O)N[C@@H](Cc4ccccc4)C2[C@H](C)[C@@]2(C)O[C@H]2C3/C=C/C/C=C\CNC(=O)CNC1=O (stereo partly drawn)
A) False

Q) Input `COCCOC(=O)N1C(=O)[C@@]2(c3cc(C#CCC(C(=O)OC)C(=O)OC)ccc31)[C@H](C(=O)Nc1nc3ccccc3s1)[C@H]1C(=O)O[C@H](c3ccccc3)[C@H](c3ccccc3)N1[C@@H]2c1ccc(O)cc1`
A) True

Q) Input `CC(C)C[C@@H]1NC(=O)[C@@H]2C[C@H](C(=O)NCCCCCCNC(=O)CS)[C@H](c3cccc(OCCO)c3)N2C1=O`
A) True
